- Assay Remarks: Tensile properties (GB/T 1040-2006): tensile modulus at 100%, elongation at break, elastic modulus
- Format: physicochemical
- Test Conditions: PVC plastic with 35 parts plasticizer; 50 mm/min, 25°C
- Procedure: The aconitates and tributyl citrate prepared in the above examples and comparative examples were added as plasticizers to PVC resin to obtain PVC plastics. […] In the experiment, 2.5 g of plasticizer and 25 g of acetone were added to a beaker, titrated with a burette filled with deionized water, and agitated while titrating until turbidity appears, and the volume of deionized water consumed was recorded. • 4. […]
Where a name gives a salt, the structure may show the parent alone.
# cutoff 200 MPa applies to Elastic modulus; >= gives y, < gives n

For this compound, is measured Elastic modulus 200 MPa or higher? CCCCOC(=O)CC(O)(CC(=O)OCCCC)C(=O)OCCCC [Comparative Example 5, tributyl citrate, reference compound]
y

For this compound, is measured Elastic modulus 200 MPa or higher? CCCCOC(=O)C=C(CC(=O)OCCCC)C(=O)OCCCC [Example 29, tributyl aconitate]
n

For this compound, is measured Elastic modulus 200 MPa or higher? CCCCOC(=O)C=C(CC(=O)OCCCC)C(=O)OCCCC [Comparative Example 3, tributyl aconitate, reference compound]
n

For this compound, is measured Elastic modulus 200 MPa or higher? CCCCOC(=O)C=C(CC(=O)OCCCC)C(=O)OCCCC [Comparative Example 2, tributyl aconitate, reference compound]
n

For this compound, is measured Elastic modulus 200 MPa or higher? CCCCOC(=O)C=C(CC(=O)OCCCC)C(=O)OCCCC [Example 24, tributyl aconitate]
n

For this compound, is measured Elastic modulus 200 MPa or higher? CCCCOC(=O)CC(O)(CC(=O)OCCCC)C(=O)OCCCC [Comparative Example 4, tributyl citrate, reference compound]
y

---

- Assay Remarks: Glass transition temperature (dynamic mechanical analyzer)
- Type: physicochemical
- Test Conditions: PVC plastic with 35 parts plasticizer; -40 to 80°C, 3°C/min, 1 Hz
Where a name gives a salt, the structure may show the parent alone.
# cutoff 30 °C applies to Tg; >= gives y, < gives n

For this molecule, is measured Tg 30 °C or higher? CCCCOC(=O)C=C(CC(=O)OCCCC)C(=O)OCCCC [Example 28, tributyl aconitate]
n

For this molecule, is measured Tg 30 °C or higher? CCCCOC(=O)C=C(CC(=O)OCCCC)C(=O)OCCCC [Example 24, tributyl aconitate]
n

For this molecule, is measured Tg 30 °C or higher? CCCCOC(=O)CC(O)(CC(=O)OCCCC)C(=O)OCCCC [Comparative Example 5, tributyl citrate, reference compound]
y

For this molecule, is measured Tg 30 °C or higher? CCCCOC(=O)C=C(CC(=O)OCCCC)C(=O)OCCCC [Example 23, tributyl aconitate]
n

For this molecule, is measured Tg 30 °C or higher? CCCCOC(=O)C=C(CC(=O)OCCCC)C(=O)OCCCC [Example 26, tributyl aconitate]
n

For this molecule, is measured Tg 30 °C or higher? CCCCC(CC)COC(=O)C=C(CC(=O)OCC(CC)CCCC)C(=O)OCC(CC)CCCC (stereo not shown) [Example 20, tri(2-ethylhexyl) aconitate]
y

---

- Assay Remarks: Water content (Karl Fischer moisture meter)
- Format: physicochemical
- Test Conditions: aconitate/citrate products, Table 4
Where a name gives a salt, the structure may show the parent alone.
Below, each entry is listed alongside its reported Water content.
Unit % implied. Number only.

Below, each entry is followed by its recorded Water content result.
CCCCC(CC)COC(=O)C=C(CC(=O)OCC(CC)CCCC)C(=O)OCC(CC)CCCC (stereo not shown) [Example 20, tri(2-ethylhexyl) aconitate]
0.05
CCCCOC(=O)C=C(CC(=O)OCCCC)C(=O)OCCCC [Comparative Example 2, tributyl aconitate, reference compound]
0.05
CCCCOC(=O)C=C(CC(=O)OCCCC)C(=O)OCCCC [Example 30, tributyl aconitate]
0.04

Please turn your attention to the following entry.
Which Water content reading was recorded for the compound CCCCOC(=O)CC(O)(CC(=O)OCCCC)C(=O)OCCCC [Comparative Example 4, tributyl citrate, reference compound] ?
0.04

Numbers sourced from patent EP4715056A1.
